# melting point per record follows
reported_metric: melting point

compound=Cc1oc(-c2ccc(C(F)(F)F)cc2)cc1C(=O)Nc1cccc(CCC(=O)O)c1 test_result="200 to 201 °C"
compound=COc1ccc(C(=O)Nc2ccccc2)cc1NS(=O)(=O)c1cccc(C#N)c1 test_result="195 to 197 °C"
compound="CCOC(=O)C1(F)C(=O)NC(=O)NC1O/N=C\\c1ccco1 (stereo not given)" test_result="152 to 153 °C"
compound="CCN(CC)c1ccc(C2(c3ccc(N(C)C)cc3)OC(=O)c3c(Cl)c(Cl)c(Cl)c(Cl)c32)c(N(CC)CC)c1 (stereo not given)" test_result="174 to 176 °C"
compound="Cc1nnc(S(=O)c2c(C)cccc2C)o1 (stereo not given)" test_result="79 to 80 °C"
compound=COc1ccc2cnc(Nc3ccc(N4CCNCC4)c(F)c3)nc2c1C1CCCC1 test_result="228 to 229 °C"
compound=CCOC(=O)c1cn(C2CC2)c2cc(-c3cc(C4OCC(C)(C)CO4)cc(OC)c3OC)c(F)cc2c1=O test_result="178 to 180 °C"
compound=CCOC(=O)c1c(CCl)nc2cc(OC)c(OC)cc2c1-c1ccc(Cl)c(Cl)c1 test_result="159 to 160 °C"
compound=O=S(=O)(c1ccc(Cl)cc1)N1CCC[C@@H](Nc2nccc(-c3c(-c4cccc(C=NO)c4)nc4sccn34)n2)C1 test_result="238 to 240 °C"
compound=O=C(Nc1ccc(C(=O)N2Cc3ccccc3Nc3ccccc32)c(Cl)c1)c1ccccc1-c1ccccc1 test_result="158 to 184 °C"
compound=C[C@@H]1N(C(=O)OC(C)(C)C)CC[C@]1(C)O test_result="109 to 112 °C"
compound="CC(=O)NC1CCN(Cc2ccccc2)C1C (stereo not given)" test_result="51 to 54 °C"
compound=COc1ccc(-c2cc(F)c3c(Cl)c(O)ccc3c2)cc1 test_result="120 to 124 °C"
compound=O=C(O)c1ccc2c(Br)n[nH]c2c1 test_result="> 250 °C"
compound=Nc1sc2c(c1C(=O)c1cccs1)CCC2 test_result="133 to 134 °C"
compound=Cc1cccc(CC(=O)O)c1OCCCc1cc(OC(C)C)nn1Cc1ccc(Cl)cc1Cl test_result="70 to 71 °C"
compound="N#CCC(C#N)S(=O)(=O)c1ccc(Cl)cc1 (stereo not given)" test_result="130 to 137 °C"
compound="CC1CC(=O)c2c(nc3c(c2N)c2ccccc2n3C)C1 (stereo not given)" test_result="216 to 217 °C"
compound="COC(=O)CC(CSC(C)=O)C(=O)O (stereo not given)" test_result="120 to 121 °C"
compound=Cc1cccc2c(C(=O)O)cn(C)c12 test_result="243 °C"

---

reported_metric: melting point

compound="NC(c1ccncc1)C1CCN(C2CCC(O)(CC(=O)O)CC2)CC1 (stereo not given)" test_result="266 °C"
compound="CCOC(OCC)C1Cc2c(Br)ccc(OC)c2C1=O (stereo not given)" test_result="76 to 78 °C"
compound="COc1ccc2c(c1OC(C)=O)NC(OC)C1CCCN1C2=O (stereo not given)" test_result="143 to 145 °C"
compound=O=C1CNC(c2cc(-c3ccsc3)cc(-c3ccsc3)c2)=NN1CC(F)(F)F test_result="180 to 182 °C"
compound=O=C(O)c1ccc(COCc2csc3nc(C(=O)NCc4cccc(C(F)(F)F)c4)[nH]c(=O)c23)cc1 test_result="261 to 263 °C"
compound=COc1sc(-c2csc(C(N)=O)n2)c(Cl)c1C test_result="201 to 203 °C"
compound=Cn1nc2c(N)nc3ccccc3c2c1CC(C)(C)O test_result="256 to 257 °C"
compound=CCCOCCOc1ccc(-c2ccc3c(c2)C=C(C(=O)Nc2ccc(CN(C)C4CCOCC4)cc2)CCS3(=O)=O)cc1 test_result="195 to 197 °C"
compound=O=C1C(=O)c2ccc(-c3ccccc3C(F)(F)F)cc2C2=C1SCC1(CCNCC1)O2 test_result="125 to 127 °C"
compound=c1cncc(-c2ccc3nncn3n2)c1 test_result="199 to 200 °C"

---

Catalogue of melting point values
reported_metric: melting point

molecule="COc1cc(NC(C)CCCN2C(=O)c3ccccc3C2=O)c2ncccc2c1N(C)C (stereo unspecified)" test_result="103 to 105 °C"
molecule=COc1ccc(C(=O)c2ccc(OCc3nc(-c4ccccc4)oc3C)cc2)c(OC(C)(C)C(=O)O)c1 test_result="175 to 177 °C"
molecule="OC1(C2CCN(Cc3ccccc3)CC2)c2ccsc2CCn2ccnc21 (stereo unspecified)" test_result="189 °C"
molecule=CCNc1cn(-c2cncc(F)c2)nc1C test_result="85 to 86 °C"
molecule="CC(=O)C1CCC2C3CCC4CCCCC4(C)C3CCC12C (stereo unspecified)" test_result="84 to 90 °C"
molecule=c1ccc2c(N3CCNCC3)nccc2c1 test_result="54 to 56 °C"
molecule=CSc1ccc(CN(C)CCOc2ccc(NC(=O)c3cccc4c(=O)c5ccccc5[nH]c34)cc2)cc1 test_result="150 °C"
molecule=NCCCCCCNc1nsc2nccn12 test_result="81 to 82 °C"
molecule="CC(C)C(NC(=O)N(C)Cc1nc2ccccc2[nH]1)C(=O)NN(C(=O)OCc1cccnc1)C(Cc1ccccc1)CC(O)CCc1ccccc1 (stereo unspecified)" test_result="110 to 114 °C"
molecule=CCCN(CC(=O)Nc1c(OC)nc(C)nc1OC)c1ccccc1 test_result="173 to 174 °C"
molecule="CCOC(=O)CCCCCCC1C(=O)NC(=O)N1CCC(=O)C1CCCCC1 (stereo unspecified)" test_result="77.5 to 78.5 °C"
molecule="CC(CN1CCCCC1)Nc1ccnc2cc(Cl)ccc12 (racemic)" test_result="168 to 171 °C"
molecule=CN(c1cccc2cc(-c3ncc(CN4CCC5(CC4)CNC(=O)O5)s3)[nH]c12)S(=O)(=O)c1cccs1 test_result="224 °C"
molecule=CN(C)c1nc2ccccc2nc1/C=C/c1nc(Cl)cc(N2CCCC2)n1 test_result="196 to 197 °C"
molecule="O=C(CBr)c1ccc(OC2CCCCO2)cc1 (racemic)" test_result="102 to 104 °C"
molecule="COC(=O)C(Cc1cc(OC)cc(OC)c1)c1ccc(O)cc1 (stereo unspecified)" test_result="63 to 65 °C"
molecule="COc1cc2c(cc1Br)CC(C)NN=C2c1ccc([N+](=O)[O-])cc1 (stereo unspecified)" test_result="172 to 174 °C"
molecule=COc1cc2cc(CO)cc(-c3ccnc(Cl)c3)c2cc1OC test_result="115 to 118 °C"
molecule=NS(=O)(=O)c1ccc(CCC(=O)O)cc1 test_result="97 to 99 °C"
molecule=COC(=O)c1ccc(OC)c(O)c1O test_result="100 to 101 °C"
molecule=COc1cccc2c1C(NC(C)=O)=NS2(=O)=O test_result="242 to 245 °C"
molecule=COC(=O)c1cc(-c2ccc(S(C)(=O)=O)cc2)n(-c2ccc(Cl)cc2)n1 test_result="169 to 171 °C"
molecule=COc1cccc(Cn2c(C(=O)O)c(-c3ccc(OCC4CC4)cc3)c3cc(OCc4ccccc4)ccc32)c1 test_result="185 to 187 °C"
molecule=Cc1cc(N)n(C(CCc2ccccc2)=NO)n1 test_result="138 to 140 °C"
molecule=CCCCn1c(=O)c2nc(-c3ccc(/C=C/C(=O)O)cc3)[nH]c2n(CCCC)c1=O test_result="350 to 355 °C"
molecule="O=C(O)C(O)c1ccc(-n2cccc2)cc1 (stereo unspecified)" test_result="168 °C"
molecule=COc1ccc(-c2cc3c(C#N)c(OC)ccc3o2)cc1 test_result="120 to 122 °C"
molecule=O=[N+]([O-])c1ccc(F)cc1OCc1ccccc1 test_result="52 to 54 °C"
molecule=CCn1nc2c(N)nc3ccccc3c2c1CCCCO test_result="159 to 160 °C"
molecule=CON(c1ccc([N+](=O)[O-])cc1Cl)S(=O)(=O)c1cccc(C(F)(F)F)c1 test_result="95.5 to 96.5 °C"
molecule="O=c1oc2ccccc2c(O)c1C1CC(c2ccc(Cc3ccc(-c4ccccc4)cc3)cc2)Cc2ccccc21 (stereo unspecified)" test_result="118 to 121 °C"
molecule=COC(=O)CCc1cnoc1-c1ccc(Cl)c(F)c1 test_result="53 to 54 °C"
molecule=O=C(NC12CC3CC(CC(C3)C1)C2)c1nc(Br)n(-c2ccccc2)c1Br test_result="228 to 231 °C"
molecule=CN(C)C(=O)c1ncn2c(=O)n(CCCl)nnc12 test_result="114 to 116 °C"
molecule=COC(=O)c1ccc(F)c(S(N)(=O)=O)c1 test_result="127 to 129 °C"
molecule=O=[N+]([O-])c1ccc2c(c1)CNCCS2 test_result="104 to 105 °C"
molecule=Cc1ccc(-c2nc3ccc(N(C)C)cn3c2CN(C)C(=O)CC(C)C)cc1 test_result="200 to 202 °C"
molecule=CCCC(CCC)Nc1nc(C)nc(Oc2c(Br)cc(C(C)(C)O)cc2OC)c1[N+](=O)[O-] test_result="119 to 120 °C"
molecule=CCOCc1cc(OC)c(-c2ccc(C[C@H](NC(=O)c3c(F)cccc3Cl)C(=O)O)cc2)c(OC)c1 test_result="182 to 184 °C"
molecule=CC(C)c1ccc(NCc2ccc(N(C)C)cc2)cc1 test_result="71 to 73 °C"
molecule="CC(CO)c1ccc2cc(OCc3ccc4ccccc4n3)ccc2c1 (stereo unspecified)" test_result="129 to 131 °C"

Entry source: a melting point compilation (Tetko et al.; mined from patent text by program, amines drawn as free bases though some values may be those of a salt)
